The measurements presented in this section are drawn from the supplement of paper PMC9233669.

- Test system: biotinyl-Val-oxazolone
- Test name: self-aminoacylation, catalytic enhancement (BVO) (fold over background); higher = more active; k-Seq, kA / k0A0; sequences stand for … in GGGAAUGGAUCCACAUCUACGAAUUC…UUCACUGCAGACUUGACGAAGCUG
This sample holds only a part of the variants without activity.
Reported self-aminoacylation values are given for each entry in this list.

[[record]]
macromolecule_sequence = "CCACGCUUCAAGCAAUCGGUC [Fam1B.1 aminoacylation ribozyme variant]"
result = 1.54


What is its self-aminoacylation for biotinyl-Val-oxazolone? Entry: AUUCCCCUGGUCAUUGAGUGA [Fam2.1 aminoacylation ribozyme variant] 4.5

What is its self-aminoacylation for biotinyl-Val-oxazolone? Entry: AAGUUUGCUCAUAGUGGCAAG [Fam3.1 aminoacylation ribozyme variant] 0.774

What is its self-aminoacylation for biotinyl-Val-oxazolone? Entry: AAGUUUACAAAUAGUCGCAAG [Fam3.1 aminoacylation ribozyme variant] 1.66

What is its self-aminoacylation for biotinyl-Val-oxazolone? Entry: CCACACUUCAAGCAAUCGGUC [Fam1B.1 aminoacylation ribozyme variant] 1.25

What is its self-aminoacylation for biotinyl-Val-oxazolone? Entry: AAGUAUGCUAAUAGUCCCAAG [Fam3.1 aminoacylation ribozyme variant] 1.16

What is its self-aminoacylation for biotinyl-Val-oxazolone? Entry: AUUCGCCUAGGUCAUCAGGUG [Fam2.2 aminoacylation ribozyme variant] 1.53

What is its self-aminoacylation for biotinyl-Val-oxazolone? Entry: ACUCACCUAGGUCAUAGGGUG [Fam2.2 aminoacylation ribozyme variant] 1.36

What is its self-aminoacylation for biotinyl-Val-oxazolone? Entry: AAGUUUGCUAUUAGACGCAAG [Fam3.1 aminoacylation ribozyme variant] 0.894

What is its self-aminoacylation for biotinyl-Val-oxazolone? Entry: CUACUUCAAACAAUCGCUCCG [Fam1A.1 aminoacylation ribozyme variant] 0.926

What is its self-aminoacylation for biotinyl-Val-oxazolone? Entry: AUAACCCUUGUCAUCGAGUGA [Fam2.1 aminoacylation ribozyme variant] 3.13

What is its self-aminoacylation for biotinyl-Val-oxazolone? Entry: CUACUUCAAACAAGGGGUCUG [Fam1A.1 aminoacylation ribozyme variant] 0.801

What is its self-aminoacylation for biotinyl-Val-oxazolone? Entry: CUACUUCAAACAAUCGGACAG [Fam1A.1 aminoacylation ribozyme variant] 0.709

What is its self-aminoacylation for biotinyl-Val-oxazolone? Entry: AUUCACCUAGGCCAUCGCGUG [Fam2.2 aminoacylation ribozyme variant] 4.15

What is its self-aminoacylation for biotinyl-Val-oxazolone? Entry: CCACACUUCAAGCUAUCGGGC [Fam1B.1 aminoacylation ribozyme variant] 1.76

What is its self-aminoacylation for biotinyl-Val-oxazolone? Entry: AUGACGCUGGUCAUCGAGUGA [Fam2.1 aminoacylation ribozyme variant] 3.4

What is its self-aminoacylation for biotinyl-Val-oxazolone? Entry: AUUCACCUAGGUCAUCGGGAA [Fam2.2 aminoacylation ribozyme variant] 4.14

What is its self-aminoacylation for biotinyl-Val-oxazolone? Entry: AUUUCCCUGGUCAUGGAGUGA [Fam2.1 aminoacylation ribozyme variant] 2.89
